Molecular target: TTR (Homo sapiens (Human), UniProt P02766)
Test: biochemical
Format: binding
Conditions: FITC-coupled TTR FP probe; read-out: TTR FP IC50
Description: Compound binding to TTR was assessed in the fluorescence polarization assay. […] Each well contained 200 nM TTR and 100 nM FITC-diclofenac in the FP buffer (10 mM Tris-HCl pH 7.5, 150 mM NaCl, 0.01% CHAPS, 0.01% Prionex) along with test compounds. Nonspecific binding was determined in the presence of 500 μM unlabeled diclofenac (Sigma-Aldrich). Reactions with test compounds were incubated overnight at 4° C. and FP was measured on SpectramaxM5e plate reader (Molecular Devices).
READOUT_LABEL: IC50 (µM)

[[record]]
molecule = "Cc1cc(C(=O)O)nc(N2CCCC(COc3ccccc3C(F)(F)F)C2)n1 (racemic) [(±)-62]"
readout_label = "IC50"
unit_info = "µM"
bound_operator = "="
value = 1.1

[[record]]
molecule = "Cc1cc(C(=O)O)nc(N2CCC3(CCN(c4ccccc4C(F)(F)F)C3)C2)n1 (racemic) [(±)-67]"
readout_label = "IC50"
unit_info = "µM"
bound_operator = "="
value = 1.6

[[record]]
molecule = "Cc1cc(C(=O)O)nc(N2CCC(COc3c(F)cccc3C(F)(F)F)C2)n1 (racemic) [Compound (±)-89]"
readout_label = "IC50"
unit_info = "µM"
bound_operator = "="
value = 1.9

[[record]]
molecule = "Cc1cc(C(=O)O)nc(N2CCC(COc3ccc(F)cc3C(F)(F)F)C2)n1 (racemic) [Compound (±)-87]"
readout_label = "IC50"
unit_info = "µM"
bound_operator = "="
value = 3.9

[[record]]
molecule = "Cc1cc(C(=O)O)nc(N2CCC(COc3cccc(Cl)c3C(F)(F)F)C2)n1 (racemic) [Compound (±)-86]"
readout_label = "IC50"
unit_info = "µM"
bound_operator = "="
value = 3.9

[[record]]
molecule = "Cc1cc(C(=O)O)nc(N2CC[C@@H](COc3ccccc3C(F)(F)F)C2)n1 [Compound (R)-50]"
readout_label = "IC50"
unit_info = "µM"
bound_operator = "="
value = 3.2

[[record]]
molecule = "O=C(O)c1ccnc(N2CCC(COc3ccccc3C(F)(F)F)C2)n1 (racemic) [Compound (±)-94]"
readout_label = "IC50"
unit_info = "µM"
bound_operator = "="
value = 11

[[record]]
molecule = "Cc1cc(C(=O)NC2CC2)nc(N2CCC(COc3ccccc3C(F)(F)F)C2)n1 (racemic) [Compound (±)-102]"
readout_label = "IC50"
unit_info = "µM"
bound_operator = "="
value = 4.1

[[record]]
molecule = "COc1ccc(C(F)(F)F)c(OCC2CCN(c3nc(C)cc(C(=O)O)n3)C2)c1 (racemic) [Compound (±)-90]"
readout_label = "IC50"
unit_info = "µM"
bound_operator = ">"
value = 30

[[record]]
molecule = "Cc1cc(C(=O)NS(C)(=O)=O)nc(N2CCC(COc3ccccc3C(F)(F)F)C2)n1 (racemic) [(±)-99]"
readout_label = "IC50"
unit_info = "µM"
bound_operator = "="
value = 4.2

[[record]]
molecule = "Cc1cc(C(=O)O)nc(N2CC(COc3ccccc3C(F)(F)F)C2)n1"
readout_label = "IC50"
unit_info = "µM"
bound_operator = "="
value = 26

[[record]]
molecule = "Cc1cc(C(=O)O)nc(N2CCC(COc3cc(C(F)(F)F)cc(C(F)(F)F)c3)C2)n1 (racemic) [Compound (±)-91]"
readout_label = "IC50"
unit_info = "µM"
bound_operator = ">"
value = 30

[[record]]
molecule = "O=C(O)c1cccc(N2CCC(COc3ccccc3C(F)(F)F)C2)n1 (racemic) [Compound (±)-96]"
readout_label = "IC50"
unit_info = "µM"
bound_operator = "="
value = 25

[[record]]
molecule = "O=C(O)c1ccc(F)c(N2CCC(COc3ccccc3C(F)(F)F)C2)c1 (racemic) [(±)-98]"
readout_label = "IC50"
unit_info = "µM"
bound_operator = "="
value = 1.88

[[record]]
molecule = "Cc1cc(C(=O)O)nc(N2CCC(COc3ccccc3C3CCCCC3)C2)n1 (racemic) [Compound (±)-85]"
readout_label = "IC50"
unit_info = "µM"
bound_operator = ">"
value = 30

[[record]]
molecule = "Cc1cc(C(=O)O)nc(N2CCC(Oc3ccccc3C(F)(F)F)C2)n1 (racemic) [(±)-27]"
readout_label = "IC50"
unit_info = "µM"
bound_operator = "="
value = 8.8

[[record]]
molecule = "Cc1cc(C(=O)O)nc(N2CCC(COc3ccccc3C(F)(F)F)C2)n1 (racemic) [Compound (±)-44]"
readout_label = "IC50"
unit_info = "µM"
bound_operator = "="
value = 2.85

[[record]]
molecule = "Cc1cc(C(=O)O)nc(N2CCC(COc3ccccc3C(C)(C)C)C2)n1 (racemic) [Compound (±)-83]"
readout_label = "IC50"
unit_info = "µM"
bound_operator = ">"
value = 30

[[record]]
molecule = "Cc1cc(C(=O)O)nc(N2CCC(COc3cnccc3C(F)(F)F)C2)n1 (racemic) [Compound (±)-92]"
readout_label = "IC50"
unit_info = "µM"
bound_operator = ">"
value = 30

[[record]]
molecule = "Cc1cc(C(=O)O)nc(N2CC(Oc3ccccc3C(F)(F)F)C2)n1"
readout_label = "IC50"
unit_info = "µM"
bound_operator = "="
value = 13.5

[[record]]
molecule = "Cc1cc(C(=O)O)nc(N2CCC(COc3cc(F)ccc3C(F)(F)F)C2)n1 (racemic) [Compound (±)-88]"
readout_label = "IC50"
unit_info = "µM"
bound_operator = "="
value = 13

[[record]]
molecule = "Cc1cc(C(=O)O)nc(N2CCC(COc3cccnc3C(F)(F)F)C2)n1 (racemic) [Compound (±)-93]"
readout_label = "IC50"
unit_info = "µM"
bound_operator = ">"
value = 30

[[record]]
molecule = "Cc1cc(C(=O)O)nc(N2CCC(CNc3ccccc3C(F)(F)F)C2)n1 (racemic) [(±)-76]"
readout_label = "IC50"
unit_info = "µM"
bound_operator = "="
value = 3.5

[[record]]
molecule = "O=C(O)c1cccnc1N1CCC(COc2ccccc2C(F)(F)F)C1 (racemic) [Compound (±)-97]"
readout_label = "IC50"
unit_info = "µM"
bound_operator = "="
value = 4.9

[[record]]
molecule = "Cc1cc(C(=O)O)nc(N2CC[C@H](COc3ccccc3C(F)(F)F)C2)n1 [Compound (S)-56]"
readout_label = "IC50"
unit_info = "µM"
bound_operator = "="
value = 3.9

[[record]]
molecule = "CNC(=O)c1cc(C)nc(N2CCC(COc3ccccc3C(F)(F)F)C2)n1 (racemic) [(±)-101]"
readout_label = "IC50"
unit_info = "µM"
bound_operator = ">"
value = 30

[[record]]
molecule = "Cc1cc(C(=O)O)nc(N2CCC(COc3ccccc3C(F)(F)F)C2)c1 (racemic) [(±)-95]"
readout_label = "IC50"
unit_info = "µM"
bound_operator = "="
value = 7.4

[[record]]
molecule = "Cc1cc(-c2nn[nH]n2)nc(N2CCC(COc3ccccc3C(F)(F)F)C2)n1 (racemic) [(±)-103]"
readout_label = "IC50"
unit_info = "µM"
bound_operator = "="
value = 1.26

[[record]]
molecule = "Cc1cc(C(=O)O)nc(N2CCC(Oc3ccccc3C(F)(F)F)CC2)n1"
readout_label = "IC50"
unit_info = "µM"
bound_operator = "="
value = 4

[[record]]
molecule = "Cc1cc(C(=O)O)nc(N2CCC(CSc3ccccc3C(F)(F)F)C2)n1 (racemic) [Compound (±)-71]"
readout_label = "IC50"
unit_info = "µM"
bound_operator = "="
value = 10.5

[[record]]
molecule = "Cc1cc(C(=O)O)nc(N2CCC(COc3ccccc3C3CCCC3)C2)n1 (racemic) [Compound (±)-84]"
readout_label = "IC50"
unit_info = "µM"
bound_operator = ">"
value = 30

[[record]]
molecule = "Cc1cc(C(=O)O)nc(N2CCC(OCc3ccccc3C(F)(F)F)C2)n1 (racemic) [(±)-80]"
readout_label = "IC50"
unit_info = "µM"
bound_operator = "="
value = 13

[[record]]
molecule = "Cc1cc(C(N)=O)nc(N2CCC(COc3ccccc3C(F)(F)F)C2)n1 (racemic) [Compound (±)-100]"
readout_label = "IC50"
unit_info = "µM"
bound_operator = ">"
value = 30


* * *

Assay: In vivo PK in CD-1 mice (IV and PO)
Set-up: species or system mouse
Conditions: mouse, whole blood; IV 2 mg/kg, male CD-1 mice, blood
READOUT_LABEL: C0 (ng/mL)

[[record]]
molecule = "Cc1cc(C(=O)O)nc(N2CCC(COc3ccccc3C(F)(F)F)C2)n1 (racemic) [Compound (±)-44]"
value = 9130


* * *

Assay: In vivo PK in CD-1 mice (IV and PO)
Design: species or system mouse
Details: mouse, whole blood; PO 5 mg/kg, male CD-1 mice, blood
READOUT_LABEL: Cmax (ng/mL)

[[record]]
molecule = "Cc1cc(C(=O)O)nc(N2CCC(COc3ccccc3C(F)(F)F)C2)n1 (racemic) [Compound (±)-44]"
readout_label = "Cmax"
value = 3030

